Biological target: Human S1P3 receptor (Homo sapiens)
Sequence (Q99500 whole entry): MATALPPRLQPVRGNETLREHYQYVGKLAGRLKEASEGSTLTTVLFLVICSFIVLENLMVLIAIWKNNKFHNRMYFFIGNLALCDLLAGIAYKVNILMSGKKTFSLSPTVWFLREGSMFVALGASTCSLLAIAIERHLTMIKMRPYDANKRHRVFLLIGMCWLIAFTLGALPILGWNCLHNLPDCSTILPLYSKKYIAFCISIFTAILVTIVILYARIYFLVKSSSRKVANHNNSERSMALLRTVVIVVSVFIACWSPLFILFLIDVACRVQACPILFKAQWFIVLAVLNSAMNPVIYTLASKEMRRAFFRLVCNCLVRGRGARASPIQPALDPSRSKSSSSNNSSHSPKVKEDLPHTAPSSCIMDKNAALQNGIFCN
Experiment: Agonist activity at an S1P3 receptor ([35S]-GTPγS exchange reaction at 1000 nM)
Type: biochemical
Settings: read-out: percent of the maximal agonist activity at S1P3 receptor
assay_endpoint: Emax at 1 µM

// each compound listed below needs its Emax at 1 µM
1. CC(C)Oc1ccc(-c2cnc(-c3ccc(CN4CC(C(=O)O)C4)cc3)s2)cc1F [Example 53]
2. CC(C)c1ccc(-c2cnc(-c3ccc(CN4CC(C(=O)O)C4)cc3)s2)cc1 [Example 46]
3. O=C(O)C1CN(Cc2ccc(-c3ncc(-c4ccc(C5CCCC5)cc4)s3)cc2)C1 [Example 34]
4. CCCCc1ccc(-c2cnc(-c3ccc(CN4CC(C(=O)O)C4)cc3)s2)cc1 [Example 47]
5. CC(C)Oc1ccc(-c2cnc(-c3ccc(CN4CC(C(=O)O)C4)cc3)s2)cc1Cl [Example 3]
6. Cc1cc(CN2CC(C(=O)O)C2)ccc1-c1ncc(-c2ccc(OC(C)C)c(Cl)c2)s1 [Example 37]
7. CC(C)Oc1ccc(-c2cnc(-c3ccc(CN4CC(C(=O)O)C4)cc3Cl)s2)cc1Cl [Example 60]

Response:
20 to 50%
< 20%
< 20%
< 20%
20 to 50%
20 to 50%
20 to 50%

====

Target: Human S1P3 receptor (Homo sapiens)
Test: Agonist activity at a S1P3 receptor (reporter assay, EDG3-Galpha15-NFAT-bla HEK293T cells)
Method: Human S1P3 receptor gene recombinant EDG3-Galpha15-NFAT-bla HEK293T cells (Life Technologies Japan Ltd.) were plated into a 384-well clear bottom black plate treated with poly-D-lysine at a density of 1000 cells/32 μL/well, and the plate was cultured at 37° C. in a 5% CO2 incubator for 16-24 hours. […] The intensity ratio of fluorescence at 460 nm/530 nm was calculated for the compound at each well. The maximum response ratio confirmed from the dose response of S1P was expressed as 100%. […]
Please respond with reported EC50 for every item in the list.

CC(C)Oc1ccc(-c2cnc(-c3ccc(CN4CC(C(=O)O)C4)cc3)s2)cc1Cl [Example 3]	≥ 2000 nM

Query: Query EC50 for CC(C)Oc1ccc(-c2cnc(-c3ccc(CN4CC(C(=O)O)C4)cc3)s2)cc1 [Example 2]
Response: ≥ 2000 nM

====

Biological target: Human S1P1 receptor (Homo sapiens, UniProt P21453)
Sequence (P21453 whole entry): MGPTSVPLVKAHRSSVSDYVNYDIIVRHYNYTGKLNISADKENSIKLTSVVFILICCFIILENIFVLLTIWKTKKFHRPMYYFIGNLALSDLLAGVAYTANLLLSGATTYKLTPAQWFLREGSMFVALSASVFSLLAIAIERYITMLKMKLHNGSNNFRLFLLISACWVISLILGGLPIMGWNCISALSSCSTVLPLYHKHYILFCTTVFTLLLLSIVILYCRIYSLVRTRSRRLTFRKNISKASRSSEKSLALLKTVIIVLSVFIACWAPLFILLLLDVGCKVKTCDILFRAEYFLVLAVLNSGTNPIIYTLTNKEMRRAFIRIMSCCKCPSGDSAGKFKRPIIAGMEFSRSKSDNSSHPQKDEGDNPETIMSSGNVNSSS
Test: Agonist activity at an S1P1 receptor ([35S]-GTPγS exchange reaction, membrane fractions)
Type: biochemical
Details: read-out: EC50, agonist activity at S1P1 receptor (GTP exchange reaction)
assay_endpoint: EC50

CCCc1ccc(-c2cnc(-c3ccc(CN4CC(C(=O)O)C4)cc3)s2)cc1	≤ 50 nM
CC(C)Oc1ccc(-c2cnc(-c3ccc(CN4CC(C(=O)O)C4)cc3)s2)cc1	≤ 50 nM
CC(C)Oc1ccc(-c2cnc(-c3ccc(CN4CC(C(=O)O)C4)cc3)s2)c(C(F)(F)F)c1	≤ 500 nM
CC(C)Oc1ccc(-c2cnc(-c3ccc(CN4CC(C(=O)O)C4)cc3Cl)s2)cc1	≤ 50 nM
CC(C)Oc1ccc(-c2cnc(-c3ccc(CN4CC(C(=O)O)C4)c(Cl)c3)s2)cc1Cl	≤ 50 nM

// batch mode: one EC50 value per listed entry
1. CC(C)Oc1ccc(-c2cnc(-c3ccc(CN4CC(C(=O)O)C4)cc3)s2)cc1C(F)(F)F
2. CC(C)Oc1ccc(-c2cnc(-c3ccc(CN4CC(C(=O)O)C4)cc3Cl)s2)cc1Cl

Response:
1. ≤ 100 nM
2. ≤ 10 nM
